# Tested on: PXR:RXRa (NR concentration 270 nM, RXRa partner concentration 90 nM)
# METHOD_DESCRIPTION: PBM binding z-score (relative to random genomic background probes); higher = stronger binding; sequences stand for … in GC…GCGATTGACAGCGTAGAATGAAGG
In this scheme, each record receives a class according to its PBM binding z-score; the ranges are band 1: < 2; band 2: ≥ 2 and < 3; band 3: ≥ 3

Worked cases, answers included:
CCTACTGGGCCAAGGTCAATGATCAGTCAAAGCA : band 2
CAAACTAGGTCAAGGTCAAAGTCGGTTTGTGCCA : band 3
CAAACTAGGTCACCGGAAGGTCAAGGTCCGCATG : band 3
CCTGCTAGGTCATGGTAAGCTAATCTACAGTATG : band 1

Shift focus to the following entry.
Bin this entry: TATATTAGTTGAAGGGCAACCGACGAGTCCGTTT
band 1

###

# Tested on: PPARg homodimer (NR concentration 180 nM)
# METHOD_DESCRIPTION: PBM binding z-score (relative to random genomic background probes); higher = stronger binding; sequences stand for … in GC…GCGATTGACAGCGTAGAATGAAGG
Please note: y applies when PBM binding z-score is 0.7 or greater, and n applies otherwise.

Worked cases, answers included:
CGAACTAAGTCAGAACAGGACAGTGAAGGATGAT : n
TGAACGAGGTTATAAGATCAGGGAACGTTGCAAA : y
TAGCCTAGGTCAGTGGGCCAGTATAGTACGCATC : n

Reported PBM binding z-score at or above 0.7? TCATATAGGTAAATGCTAGATGAAAGTCCGATCT
n

Reported PBM binding z-score at or above 0.7? CGAACTAGGTCATTGACAGGACAGTGAATAGTAA
y

Reported PBM binding z-score at or above 0.7? CGAACGAGGGCATGACTTGATAGCAAATGCCGAT
n

###

# System: LXRb homodimer (NR concentration 270 nM)
# METHOD_DESCRIPTION: PBM binding z-score (relative to random genomic background probes); higher = stronger binding; sequences stand for … in GC…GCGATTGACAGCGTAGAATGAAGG
Recorded PBM binding z-score for the following sequences
Reply briefly: the number, and no unit.

ATATGTAGGTTATCGGCTCATTCAGTTTGCGCAT : 1.03

API: value(readout=PBM binding z-score, system=LXRb homodimer (NR concentration 270 nM)) for record TCTAGTTGGTCACAGAGGTCACACACGACGGGTA
1.51

API: value(readout=PBM binding z-score, system=LXRb homodimer (NR concentration 270 nM)) for record CTACCAAGGTGAACAAGGTCGTTAATTACTATTC
-0.284

###

Recorded PBM binding z-score for the following sequences
# System: PXR:RXRa (NR concentration 270 nM, RXRa partner concentration 90 nM)
# METHOD_DESCRIPTION: PBM binding z-score (relative to random genomic background probes); higher = stronger binding; sequences stand for … in GC…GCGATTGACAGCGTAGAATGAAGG
Reply briefly: the number, and no unit.

Solved cases below.
TAGCCTAGGTCATGCGGGCCAGTAAAGTGTCGGC : 1.51
TAGCCTACGTCATTCAGGGGCCAGTATAGAAAGC : -0.22

Now for another entry.
Need PBM binding z-score, item GCTCGTAGGACAAGGTCAGAGCTTTGTCCGTAGA
1.63

###

Recorded PBM binding z-score for the following sequences
# System: RXRa DBDmut IVT, anti-RXR (DBD mutation: RXRa K156A/R161A, NR concentration 90 nM)
# METHOD_DESCRIPTION: PBM binding z-score (relative to random genomic background probes); higher = stronger binding; sequences stand for … in GC…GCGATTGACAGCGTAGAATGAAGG
Reply briefly: the number, and no unit.

Solved cases below.
AGAACGTGGGCACGCTGAGTTGATAGCAGAGTAG : -0.279
CGAACGTGGGCATGAGTTGATAGCAAATGCCGAT : 0.0414
AATACAGGGTCATCGTAGGCCACAGTACGCACAG : 3.39
GTACCAAGGTGAATAGGTCGTCGATGAGTAGGCG : -0.36

API: value(readout=PBM binding z-score, system=RXRa DBDmut IVT, anti-RXR (DBD mutation: RXRa K156A/R161A, NR concentration 90 nM)) for record ATCGAAAGGTCGACAAGGTGAGTATACACCGTTT
0.788

###

# Test system: RXRa DBDmut IVT, anti-RXR (DBD mutation: RXRa K156A/R161A, NR concentration 90 nM)
# METHOD_DESCRIPTION: PBM binding z-score (relative to random genomic background probes); higher = stronger binding; sequences stand for … in GC…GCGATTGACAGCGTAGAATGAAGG
Please note: true applies when PBM binding z-score is 1 or greater, and false applies otherwise.

TCAGACAGCTGAAGGTAACTCAGGTACGCAGTCG : false
ATATGTAGGTTAAGGGTGATTCAGGTTGGTTCGC : false
CAAACTAAGTCAAGAGGTCAAAGTCCGCTTCCCG : true
CCAGACAGGTGAGAAGTTAACTCAGCCTCGATTA : false
TTACCAAGTTGAGCTGAGGTCGTTGATCCAACTC : false

Reported PBM binding z-score at or above 1? CCAGACAGGTGAAGGGTAACTCAGTCTGGTACGC
false

Reported PBM binding z-score at or above 1? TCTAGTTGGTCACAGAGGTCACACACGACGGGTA
true

Reported PBM binding z-score at or above 1? TCGGACAGGTGAAGGTAACTCAGGTACGCAGTCG
false

Reported PBM binding z-score at or above 1? CGTCCAAGGTCATAGGAGCTCAGTGAAGACAGAT
true

Reported PBM binding z-score at or above 1? CTTCCAAGGTCAGAGAGGTCAGTGAATGCCGAGT
true

Reported PBM binding z-score at or above 1? TCGAGCAGGTTAGTCGGGGCATTCAGCCAACATA
false

###

Recorded PBM binding z-score for the following sequences
# Tested on: RARg:RXRa (NR concentration 270 nM, RXRa partner concentration 90 nM)
# METHOD_DESCRIPTION: PBM binding z-score (relative to random genomic background probes); higher = stronger binding; sequences stand for … in GC…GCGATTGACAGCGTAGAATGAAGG
Reply briefly: the number, and no unit.

TCTCGGAGGACACGACGGTCAGAGCTTTCCAGAG : 0.617
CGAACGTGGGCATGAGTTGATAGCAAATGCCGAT : -0.563
CCTTACGGGTCAAGGATATAGCACGGGTGGTACG : 4.53

Need PBM binding z-score, item AGGCAAAGTTCACTAGGTAACGTAAGATTCAGCT
4.78

Need PBM binding z-score, item ATCGAAAGGTCGACGAGGTAAGTATACACCGTTT
3.89

Need PBM binding z-score, item CGTCCAAGGTCAATGATAGGTCAGTGAAAGCATT
7.81

Need PBM binding z-score, item AGAATGAGGTTAAGAGCAGGGAAACAGAATACAT
2

Need PBM binding z-score, item GCTGCTAGGTCAACTGATAGTCAGCTAAAGCTCG
4.31

###

# Tested on: PXR:RXRa (NR concentration 270 nM, RXRa partner concentration 90 nM)
# METHOD_DESCRIPTION: PBM binding z-score (relative to random genomic background probes); higher = stronger binding; sequences stand for … in GC…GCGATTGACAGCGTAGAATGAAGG
Recorded PBM binding z-score for the following sequences

TGAATGAGGATATAAGATCAGGGAACGTTGCAAA : -0.114
TCTCGGAGGACCCGAAGGTCAGAGCTTTCCAGAG : 1.42
ACAGACAGGTGATGAAGGTAACTCTGGCTATCAT : -0.19
ATCACTAGGTAAGACTCAGTTCAGTGAAGAACGC : 0.891
TGAATGGGGTTATAAGATCAGGGAACGTTGCAAA : 2.25

API: value(readout=PBM binding z-score, system=PXR:RXRa (NR concentration 270 nM, RXRa partner concentration 90 nM)) for record CCTCGGAGTACAACAGGAGGTCAGAGCTGCCAGA
2.19

API: value(readout=PBM binding z-score, system=PXR:RXRa (NR concentration 270 nM, RXRa partner concentration 90 nM)) for record CCAGACTGGTGAGAAGGTAACTCAGCCTCGATTA
-0.321

API: value(readout=PBM binding z-score, system=PXR:RXRa (NR concentration 270 nM, RXRa partner concentration 90 nM)) for record CCTACTGGGCAACGAAAGGTCATTGATTCAGTGA
5.18

API: value(readout=PBM binding z-score, system=PXR:RXRa (NR concentration 270 nM, RXRa partner concentration 90 nM)) for record CAAACTAGGTCAAGAGGTCATAGTCCGCTTCCCG
5.98

API: value(readout=PBM binding z-score, system=PXR:RXRa (NR concentration 270 nM, RXRa partner concentration 90 nM)) for record CAAACTAGGTCACAGAGGTCAAAGTCCGTGCGTA
6.96

API: value(readout=PBM binding z-score, system=PXR:RXRa (NR concentration 270 nM, RXRa partner concentration 90 nM)) for record TCTATTACTTGATTAGGGCAACCGAAACAGCGGA
0.583
